B1: CAMK2B (parent)
chain: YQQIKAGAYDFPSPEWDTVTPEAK

Variants of: B1
test details: protein stability index of a GFP-peptide fusion (GPS, HEK-293T) (PSI 1-6); higher = more stable;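 note: lentivirally expressed fusions sorted by FACS into six bins by GFP to DsRed ratio, PSI derived from sequencing read proportions per bin multiplied by bin number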
assay context: c terminus: a fixed tail appended
Label Condition not met if protein stability index falls below 4; label Condition met in every other case.

Recorded results for 3 variants are shown here.
[
  {
    "sequence": "YQQIKAGAYDFPSPEVDTVTPEAK",
    "category": "Condition met"
  },
  {
    "sequence": "YQQIKAGAYDFPSPEWDSVTPEAK",
    "category": "Condition not met"
  },
  {
    "sequence": "YQQIKAGAFDFPSPEWDTVTPEAK",
    "category": "Condition not met"
  }
]

Data request: Does protein stability index meet or surpass 4 for `YQPIKAGAYDFPSPEWDTVTPEAK` ?
Data returned: Condition not met

Data request: Does protein stability index meet or surpass 4 for `AQQIKAGAYDFPSPEWDTVTPEAK` ?
Data returned: Condition met

Data request: Does protein stability index meet or surpass 4 for `YQQIKAGAYDFPSPEWDTVRPEAK` ?
Data returned: Condition not met

Source: the supplement of paper PMC10567573
